Field: melting point. Provide a value for each of the molecules that follow.
Give bare numbers, in °C.

These solved cases illustrate the format of a correct answer.
{"columns": ["Structure Smiles", "melting point (°C)"],
 "data": [
  ["CCN(C)C(=O)c1ccc(N2CCN(Cc3cnc4c(c3)NC(=O)[C@@H]3CCCN43)CC2)cc1", 91.9],
  ["O=[N+]([O-])c1cc(CO)cc([N+](=O)[O-])c1", 89],
  ["C[C@H](N)Cn1ncc2ccc3oc(C(=O)NCC(C)(C)CO)cc3c21", 103]
]}

Proceeding to the next molecule to report its melting point.
(Q) Would you mind telling me what melting point value was observed for CCOc1ccc(CCc2ccc(OC(F)F)cc2)cc1 ?
(A) 37
